- targetDesc: recombinant human TYRO3 (Homo sapiens, UniProt Q06418)
- Sequence (Q06418 41-890): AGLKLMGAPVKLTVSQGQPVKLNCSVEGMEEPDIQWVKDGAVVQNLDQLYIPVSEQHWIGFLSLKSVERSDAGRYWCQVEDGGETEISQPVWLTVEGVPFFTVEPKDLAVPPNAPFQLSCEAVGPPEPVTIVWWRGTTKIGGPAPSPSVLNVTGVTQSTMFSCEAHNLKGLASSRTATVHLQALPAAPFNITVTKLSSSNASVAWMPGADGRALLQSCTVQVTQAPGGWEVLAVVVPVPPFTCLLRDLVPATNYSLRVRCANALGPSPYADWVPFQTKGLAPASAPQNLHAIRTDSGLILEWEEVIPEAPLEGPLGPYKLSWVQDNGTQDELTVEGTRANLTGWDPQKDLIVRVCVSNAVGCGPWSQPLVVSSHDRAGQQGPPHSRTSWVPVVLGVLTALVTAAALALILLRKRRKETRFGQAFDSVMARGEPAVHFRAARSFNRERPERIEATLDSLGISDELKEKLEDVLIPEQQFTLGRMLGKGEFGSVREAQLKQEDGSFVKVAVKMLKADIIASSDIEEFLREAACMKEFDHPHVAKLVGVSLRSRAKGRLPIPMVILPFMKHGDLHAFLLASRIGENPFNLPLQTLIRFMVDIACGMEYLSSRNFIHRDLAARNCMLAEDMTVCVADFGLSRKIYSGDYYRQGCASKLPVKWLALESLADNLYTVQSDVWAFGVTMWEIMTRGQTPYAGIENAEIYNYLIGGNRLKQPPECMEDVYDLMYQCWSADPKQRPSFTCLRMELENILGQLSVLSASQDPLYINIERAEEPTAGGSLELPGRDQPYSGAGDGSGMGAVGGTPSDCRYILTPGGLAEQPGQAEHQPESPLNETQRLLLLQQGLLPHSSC
- assayNotes: Biochemical potency, HTRF KinEASE-TK kinase assay
- appliedConditions: 1 nM TYRO3, 700 μM ATP
pIC50: −log10 of the molar value.
endpointName: pIC50

Answered examples (3):
compound: Cc1cnc(C)c(-c2ccc(-c3c[nH]c4ncc(-c5ccc6c(c5)CC[C@@](C)(N5CCC[C@H]5C)CC6)cc34)cc2)n1 [Example 58]
result: 6.00 to 7.00
--
compound: Clc1cc(-c2c[nH]c3ncc(-c4ccc5c(c4)CC[C@@H](N4C6COCC4C6)CC5)cc23)ccc1-c1ccccn1 [Example 44]
result: 6.00 to 7.00
--
compound: c1ccc(-c2ccc(-c3c[nH]c4ncc(-c5ccc6c(c5)CC[C@@H](N[C@H]5CCCOC5)CC6)cc34)cc2)nc1 [Example 32]
result: 6.00 to 7.00

Exercise: Please report pIC50 with recombinant human TYRO3 (Homo sapiens, UniProt Q06418) for item Cc1cc(C)c(-c2ccc(-c3n[nH]c4ncc(-c5ccc6c(c5)CC[C@@](C)(N5CCC[C@H]5C)CC6)cc34)cc2)nn1 [Example 78] .
Solution: > 7.00

Exercise: Please report pIC50 with recombinant human TYRO3 (Homo sapiens, UniProt Q06418) for item Cc1cnc(-c2ccc(-c3c[nH]c4ncc(-c5ccc6c(c5)CC[C@@H](N5CCCC5)CC6)cc34)cc2)c(C)n1 [Example 59] .
Solution: 6.00 to 7.00

Exercise: Please report pIC50 with recombinant human TYRO3 (Homo sapiens, UniProt Q06418) for item Cc1cc(C)c(-c2ccc(-c3n[nH]c4ncc(-c5ccc6c(c5)CC[C@@H](N5C7COCC5C7)CC6)cc34)cc2)nn1 [Example 77] .
Solution: > 7.00

Exercise: Please report pIC50 with recombinant human TYRO3 (Homo sapiens, UniProt Q06418) for item c1ccc(-c2ccc(-c3c[nH]c4ncc(-c5ccc6c(c5)CC[C@@H](N5C[C@@H]7C[C@H]5CO7)CC6)cc34)cc2)nc1 [Example 33] .
Solution: 6.00 to 7.00

Exercise: Please report pIC50 with recombinant human TYRO3 (Homo sapiens, UniProt Q06418) for item Cc1cnc(C)c(-c2ccc(-c3c[nH]c4ncc(-c5ccc6c(c5)CC[C@@H](N5C7COCC5C7)CC6)cc34)cc2)n1 [Example 53] .
Solution: 6.00 to 7.00

Exercise: Please report pIC50 with recombinant human TYRO3 (Homo sapiens, UniProt Q06418) for item Cc1cccnc1-c1ccc(-c2c[nH]c3ncc(-c4ccc5c(c4)CC[C@@H](N[C@H]4CCCOC4)CC5)cc23)cc1 [Example 186] .
Solution: > 7.00

Exercise: Please report pIC50 with recombinant human TYRO3 (Homo sapiens, UniProt Q06418) for item COc1ccnc(-c2ccc(-c3c[nH]c4ncc(-c5ccc6c(c5)CC[C@@H](N5C7COCC5C7)CC6)cc34)cc2)c1C [Example 86] .
Solution: 6.00 to 7.00

Exercise: Please report pIC50 with recombinant human TYRO3 (Homo sapiens, UniProt Q06418) for item COc1cc(-c2n[nH]c3ncc(-c4ccc5c(c4)CC[C@@H](N4C6COCC4C6)CC5)cc23)ccc1-c1ccccn1 [Example 160] .
Solution: 6.00 to 7.00

Exercise: Please report pIC50 with recombinant human TYRO3 (Homo sapiens, UniProt Q06418) for item Cc1cccnc1-c1ccc(-c2c[nH]c3ncc(-c4ccc5c(c4)CC[C@@H](N4C6COCC4C6)CC5)cc23)cc1 [Example 1] .
Solution: > 7.00

Exercise: Please report pIC50 with recombinant human TYRO3 (Homo sapiens, UniProt Q06418) for item Cc1ccccc1-c1ccc(-c2n[nH]c3ncc(-c4ccc5c(c4)CC[C@@H](N4C6COCC4C6)CC5)cc23)nc1 [Example 98] .
Solution: < 6.00
